Biological target: T1, RSV F ectodomain stabilized in the postfusion conformation (F ΔFP), subtype A (Respiratory syncytial virus subtype A, UniProt P03420 26-109; P03420 147-524)
T1 construct: extracellular domain; trimer; also called Postfusion subtype A; Postfusion RSV F
Test: BLI, IgG on AHQ sensors, 100 nM antigen
endpoint: Kd

For the binder ADI-14539 (antibody, V domains shown, IgG; also called Antibody Number 99) VH: QVQLVESGGGVVQPGRSLRLSCAASGFAFRVYDIHWVRQAPGKGLEWVAVAWSDGRDEFYADSVKGRITISRDNSKNTVYLQMSSLRVADTAVYYCARDSGTLTGLPHDAFDVWGQGTTVTVSS VL: DIQLTQSPSTLSASVGDRVTITCRASQSITTRLAWYQQKLGKAPKLLVYKASTLEIGVPSRFSGRGSGTEFTLTISSLQPDDFATYYCHHYNSYSWTFGQGTKVDIK , what Kd is on record? 0.738 nM

For the binder ADI-14531 (antibody, V domains shown, IgG; also called Antibody Number 91) VH: QVQLVQSGAEVKKPGSSVKVSCKASGVILTSVAVSWVRQAPGKGFEWMGGILPGFNKVRHAQDFENRATHTADASTNTVYMELSGLKSEDTAVYYCAIIDPQDCTRASCFWVNWLAPWGQGTLVTVSS VL: ETTLTQSPGTLTLSPGERATLSCRASQSVPSRNLAWYQQKPGQAPRLIIYAASNRATDIPDRFSGSGSGTDFTLTISRLEPQDFAVYYCQQYETSPITFGQGTKVDIK , what Kd is on record? 12.6 nM

The measurements presented in this section are drawn from patent US20250313612A1.
